This collection of values is drawn from patent US20230061083A1.

# Target desc: KRAS G12C protein (GDP-KRAS-4B-G12C) (Homo sapiens, UniProt P01116, G12C)
# Measurement protocol: Assay for binding rate to KRAS G12C protein by LC-MS method
# Run parameters: 3 uM compound, 30 min incubation at room temperature
Reported endpoint: Binding rate to KRAS G12C protein (LC-MS POC, %) 3 uM/30 min
Give your result as the value with the unit written after it.

Q: Sample C=CC(=O)N1CCN(c2nc(=O)n(-c3c(C(C)C)ncnc3C(C)C)c3c2cc(F)c(-c2cc(F)ccc2O)[n+]3[O-])[C@@H](C)C1 — what was its Binding rate to KRAS G12C protein (LC-MS POC, %) 3 uM/30 min?
Result: 97.2%

Q: Sample C=CC(=O)N1CCN(c2nc(=O)n(-c3c(C(C)C)ncnc3C(C)C)c3c2cc(F)c(-c2cccc(F)c2O)[n+]3[O-])[C@@H](C)C1 — what was its Binding rate to KRAS G12C protein (LC-MS POC, %) 3 uM/30 min?
Result: 90.0%

Q: Sample C=CC(=O)N1CCN(c2nc(=O)n(-c3c(CC)ncnc3CC)c3c2cc(F)c(-c2c(F)cccc2F)[n+]3[O-])[C@@H](C)C1 — what was its Binding rate to KRAS G12C protein (LC-MS POC, %) 3 uM/30 min?
Result: 79.2%

* * *

Can you tell me fraction unbound at 5 h, 1 μM for the items I'm about to list?
# Measurement protocol: Plasma protein binding (PPB), RED plate dialysis, rat plasma
# Type: in vitro ADME
# Run parameters: 37° C., read-out: PPB (% free state) R
# print the numeric value only

Q: Sample C=CC(=O)N1CCN(c2nc(=O)n(-c3c(C(C)C)ncnc3C(C)C)c3nc(-c4c(F)cccc4F)c(F)cc23)[C@@H](C)C1 [SZ-014138, reference compound] — what was its fraction unbound at 5 h, 1 μM?
Result: 0.203

Q: Sample C=C(F)C(=O)N1CCN(c2nc(=O)n(-c3c(C(C)C)ncnc3C(C)C)c3nc(-c4c(F)cccc4F)c(F)cc23)[C@@H](C)C1 [SZ-014137, reference compound] — what was its fraction unbound at 5 h, 1 μM?
Result: 0.114

Q: Sample C=CC(=O)N1CCN(c2nc(=O)n(-c3c(C(C)C)ncnc3C(C)C)c3nc(-c4ccccc4)c(F)cc23)[C@@H](C)C1 [SZ-014141, reference compound] — what was its fraction unbound at 5 h, 1 μM?
Result: 0.127

Q: Sample C=CC(=O)N1CCN(c2nc(=O)n(-c3c(C(C)C)cccc3C(C)C)c3nc(-c4ccccc4)c(F)cc23)[C@@H](C)C1 [SZ-014142, reference compound] — what was its fraction unbound at 5 h, 1 μM?
Result: 0.008

Q: Sample C=CC(=O)N1CCN(c2nc(=O)n(-c3c(C(C)C)cccc3C(C)C)c3c2cc(F)c(-c2ccccc2)[n+]3[O-])[C@@H](C)C1 [SZ-014130] — what was its fraction unbound at 5 h, 1 μM?
Result: 0.188

Q: Sample C=CC(=O)N1CCN(c2nc(=O)n(-c3c(C)ccnc3C(C)C)c3nc(-c4c(O)cccc4F)c(F)cc23)[C@@H](C)C1 [SZ-014004A, reference compound] — what was its fraction unbound at 5 h, 1 μM?
Result: 0.145
